Each record here notes measured ECL signal.
- target.desc: T1, DR4G89: Human HLA-DRA1*01:02/DRB1*04:01 ECD with hemagglutinin peptide HA_304-318 (human)
- T1 construct: also called DRG89; HLA-DR4 with HA_304-318
- protocol.description: MSD ECL; antigen coated; mAb 0.2 µg/ml
Write the number in ECL without appending the unit.

// known answers, use as guide
- DR4B127 (antibody, human IgG2, kappa, V domains shown, also called VH DR4H7 / VL PH9L3) VH: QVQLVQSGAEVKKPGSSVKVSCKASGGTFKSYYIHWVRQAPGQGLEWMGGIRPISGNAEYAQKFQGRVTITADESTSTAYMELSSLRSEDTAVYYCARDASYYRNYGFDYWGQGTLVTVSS VL: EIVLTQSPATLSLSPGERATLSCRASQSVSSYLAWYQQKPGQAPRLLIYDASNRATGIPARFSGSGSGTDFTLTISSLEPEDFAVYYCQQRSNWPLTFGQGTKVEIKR: 1.03e+06
- DR4B4 (antibody, V domains shown, also called Lym-1 re-engineered as IgG2sigma) VH: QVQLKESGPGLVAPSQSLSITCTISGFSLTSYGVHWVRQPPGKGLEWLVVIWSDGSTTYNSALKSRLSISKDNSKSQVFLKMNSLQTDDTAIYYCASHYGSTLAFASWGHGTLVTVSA VL: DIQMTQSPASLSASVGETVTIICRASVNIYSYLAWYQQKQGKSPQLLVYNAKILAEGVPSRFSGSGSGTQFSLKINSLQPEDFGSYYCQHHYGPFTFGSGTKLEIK: 1.28e+06
- DR4B6 (antibody, V domains shown, also called L243 re-engineered as IgG2sigma) VH: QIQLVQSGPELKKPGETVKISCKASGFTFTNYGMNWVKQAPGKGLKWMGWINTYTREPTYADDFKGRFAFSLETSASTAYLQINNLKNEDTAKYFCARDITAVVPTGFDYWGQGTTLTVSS VL: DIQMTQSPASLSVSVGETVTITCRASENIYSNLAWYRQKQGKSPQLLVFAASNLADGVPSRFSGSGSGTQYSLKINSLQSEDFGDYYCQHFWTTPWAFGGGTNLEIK: 1.34e+06

Let us move to another entry and its ECL signal.
Request: State the recorded ECL signal for this entry: DR4B98 (antibody, human IgG2, kappa, V domains shown, also called VH DR4H50 / VL PH9L3) VH: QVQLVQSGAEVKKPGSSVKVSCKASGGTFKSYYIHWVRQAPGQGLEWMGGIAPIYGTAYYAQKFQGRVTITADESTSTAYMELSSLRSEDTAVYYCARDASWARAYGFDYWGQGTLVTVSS VL: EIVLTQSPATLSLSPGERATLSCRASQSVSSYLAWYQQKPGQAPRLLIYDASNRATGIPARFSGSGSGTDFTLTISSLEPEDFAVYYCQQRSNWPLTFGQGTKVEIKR
Response: 775000
